Target: HLA-B*0801
Reported ELISA (Absorption-Pass/Fail Control) values follow for various binders
Express the result in absorption but write the number alone.

Example entries begin here.
NVTVTHAQD (modifications not checked) [… (SEQ ID NO: 27)] ... 0.08
WLLGNPMCD (modifications not checked) [… (SEQ ID NO: 38)] ... 0.03

ELISA (Absorption-Pass/Fail Control) reading for GNPMCDEFI (modifications not checked) [… (SEQ ID NO: 39)] : 0.04

ELISA (Absorption-Pass/Fail Control) reading for LILRDCSVA (modifications not checked) [… (SEQ ID NO: 23)] : 0.07
